// EC50 lookup, one value per entry
Molecular target: T1, cynomolgus monkey (Macaca fascicularis) transferrin receptor 1 (cynomolgus monkey (Macaca fascicularis), UniProt Q5RDH6 89-760 (Pongo abelii entry), limits assumed)
T1 construct: Recombinant protein used in ELISA and SPR; also called cTfR1; cyno TfR1
T1 chain: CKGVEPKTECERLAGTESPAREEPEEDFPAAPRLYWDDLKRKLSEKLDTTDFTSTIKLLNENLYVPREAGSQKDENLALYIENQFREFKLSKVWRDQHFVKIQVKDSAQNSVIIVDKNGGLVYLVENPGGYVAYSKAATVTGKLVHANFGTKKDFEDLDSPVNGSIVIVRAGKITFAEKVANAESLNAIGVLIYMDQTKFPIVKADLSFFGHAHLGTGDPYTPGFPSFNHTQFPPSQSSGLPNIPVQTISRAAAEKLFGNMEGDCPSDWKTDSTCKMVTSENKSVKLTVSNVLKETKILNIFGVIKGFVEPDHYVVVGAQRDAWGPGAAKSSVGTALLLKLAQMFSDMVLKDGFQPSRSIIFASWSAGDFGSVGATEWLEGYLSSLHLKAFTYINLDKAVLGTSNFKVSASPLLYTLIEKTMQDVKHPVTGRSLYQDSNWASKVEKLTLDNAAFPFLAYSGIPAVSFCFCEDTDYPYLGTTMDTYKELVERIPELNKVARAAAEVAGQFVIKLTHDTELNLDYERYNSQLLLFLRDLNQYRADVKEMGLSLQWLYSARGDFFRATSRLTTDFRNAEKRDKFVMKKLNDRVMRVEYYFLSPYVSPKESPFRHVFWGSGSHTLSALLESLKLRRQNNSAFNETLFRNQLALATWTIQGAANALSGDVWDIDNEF
Experiment: ELISA, DMPK oligo (ASO300) conjugate binding to cyno TfR1

3A4 (VH3-N54T/Vk4) Fab conjugated to DMPK-targeting oligonucleotide ASO300 (Fab, V domains shown, Fab covalently conjugated to ASO300; also called 3A4 (VH3-N54T/Vk4) conjugate) VH: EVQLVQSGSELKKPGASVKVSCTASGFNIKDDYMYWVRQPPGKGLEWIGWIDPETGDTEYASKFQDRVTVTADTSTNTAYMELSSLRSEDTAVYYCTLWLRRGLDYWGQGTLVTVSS VL: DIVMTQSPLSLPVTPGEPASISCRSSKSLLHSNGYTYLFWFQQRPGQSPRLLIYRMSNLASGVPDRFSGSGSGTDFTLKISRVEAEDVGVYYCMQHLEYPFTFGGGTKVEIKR : 5.12 nM

Then there is this binder:
Look up EC50: 3A4 (VH3/Vk4) Fab conjugated to DMPK-targeting oligonucleotide ASO300 (Fab, V domains shown, Fab covalently conjugated to ASO300; also called 3A4 (VH3/Vk4) conjugate) VH: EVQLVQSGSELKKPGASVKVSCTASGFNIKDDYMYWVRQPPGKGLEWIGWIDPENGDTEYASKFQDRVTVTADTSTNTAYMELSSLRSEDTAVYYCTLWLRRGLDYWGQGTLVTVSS VL: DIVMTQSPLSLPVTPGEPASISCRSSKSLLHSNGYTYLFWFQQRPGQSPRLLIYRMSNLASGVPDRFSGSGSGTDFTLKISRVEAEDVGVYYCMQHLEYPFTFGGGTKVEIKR
7.59 nM
